Provide the reported pIC50 of each item.
Assay target: E. coli DNA gyrase (Escherichia coli (strain K12))
Method summary: DNA gyrase inhibition assay (Inspiralis, streptavidin-coated plates)
// pIC50: -log10(molar conc.)

In plain terms, Cc1[nH]c(C(=O)N(c2nc3ccc(C(=O)O)cc3s2)C(C)C)c(Cl)c1Cl [Example 41] has a documented pIC50 of 6.49

Value of measured pIC50 for the entry Cc1[nH]c(C(=O)Nc2nc3c(OCc4ccccc4)cc(C(N)=O)cc3s2)c(Cl)c1Cl [Example 28] : 7.96

pIC50 for O=C(O)c1ccc2nc(NC(=O)c3cc(Cl)c(Cl)[nH]3)sc2c1 [Example 3] is 7.72

Reported pIC50 of COc1cc(C(=O)O)cc2sc(NC(=O)c3[nH]c(C)c(Cl)c3Cl)nc12 [Example 8] : 8.12

* * *

Assay target: E. coli DNA gyrase (Escherichia coli (strain K12), UniProt P0AES6)
Method summary: DNA gyrase inhibition assay (Inspiralis, streptavidin-coated plates)
pIC50: −log10 of the molar value.
So basically: pIC50 at 7 or higher? That is fulfilled. Lower than 7? That is not fulfilled.

[ask] pIC50 >= 7 for Cc1[nH]c(C(=O)Nc2nc3cc(O)c(C(=O)O)cc3s2)c(Cl)c1Cl ?
[reply] fulfilled

[ask] Does the reported pIC50 for O=C(O)c1cc(O)c2nc(NC(=O)c3cc(Br)c(Br)[nH]3)sc2c1 fall at or above the 7 mark?
[reply] fulfilled

[ask] Given Cc1[nH]c(C(=O)Nc2nc3c(OCCN)cc(C(=O)O)cc3s2)c(Cl)c1Cl.Cl , state whether its pIC50 is at least 7.
[reply] fulfilled

[ask] Decide: is the reported value of pIC50 for O=C(O)c1ccc2nc(NC(=O)c3cc(Br)c(Br)[nH]3)sc2c1 equal to or greater than 7?
[reply] fulfilled

[ask] In plain terms: is recorded pIC50 at least 7 for Cc1[nH]c(C(=O)Nc2nc3ccc(C(=O)NO)cc3s2)c(Cl)c1Cl ?
[reply] not fulfilled

[ask] Determine whether this compound has pIC50 no lower than 7: Cc1[nH]c(C(=O)Nc2nc3ccc(C(=O)NCC(=O)O)cc3s2)c(Cl)c1Cl
[reply] fulfilled

[ask] Could you verify whether the entry Cc1[nH]c(C(=O)Nc2nc3c(OCc4ccc(C(=O)O)cc4)cc(C(=O)O)cc3s2)c(Cl)c1Cl shows pIC50 of no less than 7?
[reply] fulfilled

[ask] Item O=C(OCc1cc(=O)c(O)c[nH]1)c1ccc2nc(NC(=O)c3cc(Br)c(Br)[nH]3)sc2c1 with pIC50 of 7 or above?
[reply] not fulfilled

* * *

Assay target: E. coli DNA gyrase (Escherichia coli (strain K12), UniProt P0AES6)
Method summary: DNA gyrase inhibition assay (Inspiralis, streptavidin-coated plates)
Format: biochemical
Parameter: IC50 (nM)
Please give a number only; it is taken to be in nM.

Lab note: measured IC50 of Cc1[nH]c(C(=O)Nc2nc3c(OCc4ccccc4)cc(C(=O)NCC#N)cc3s2)c(Cl)c1Cl was 5.4

IC50 in this record for O=C(OCc1cc(=O)c(O)co1)c1ccc2nc(NC(=O)c3cc(Br)c(Br)[nH]3)sc2c1 : 1400

Entry under test: CCN(C(=O)c1[nH]c(C)c(Cl)c1Cl)c1nc2ccc(C(=O)O)cc2s1 . Its IC50 was 7.2
